Data provenance is ChEMBL document CHEMBL5247590.

Below: a set of entries, each annotated with reported Selectivity Index.
- Assay: Selectivity index, ratio of IC50 for human K562 cells to IC50 for human CCRF-CEM cells
Respond numerically, and do not add a unit to the figure.

Any idea what its Selectivity Index is? The compound is C[C@@H]1CC[C@H]2[C@@H](C)C(OC(=O)c3ccc(N(CCCl)CCCl)cc3)O[C@@H]3O[C@@]4(C)CC[C@@H]1[C@]32OO4 (some centres undefined)
1.82

Also O=C(O)CCCc1ccc(N(CCCl)CCCl)cc1 [CHLORAMBUCIL] ?
1.05

Also C[C@@H]1CC[C@@H]2[C@]34OO[C@](C)(CC[C@@H]13)O[C@H]4O[C@]2(C)COC(=O)c1ccccc1N(CCCl)CCCl ?
0.8

Also Cc1cc(C(=O)OC[C@@]2(C)O[C@@H]3O[C@@]4(C)CC[C@H]5[C@H](C)CC[C@@H]2[C@@]35OO4)ccc1N(CCCl)CCCl ?
3.18

====

Below: a set of entries, each annotated with reported IC50.
- Assay: Antitumor activity against human L02 cells assessed as cell growth inhibition
- Assay type: toxicity, cell-based

Example cases with answers are listed next.
Any idea what its IC50 is? The molecule is C=C1C(=O)[C@]23[C@H](OC(=O)c4ccc(N(CCCl)CCCl)cc4)[C@H]1CC[C@H]2[C@@]12CO[C@@]3(O)[C@@H](O)[C@@H]1C(C)(C)CC[C@@H]2O
4.03 µM

Also O=C(OCCCOc1ccc(-c2cc(=O)c3c(O)c(O)c(O)cc3o2)cc1)c1ccc(N(CCCl)CCCl)cc1 ?
> 50 µM

Now, please, on to the next molecule.
Any idea what its IC50 is? The molecule is C=C1C(=O)[C@@]23C(=O)O[C@H]4CCC(C)(C)[C@H]5[C@H](O)OC[C@@]45[C@@H]2CC[C@@H]1[C@H]3OC(=O)c1ccc(N(CCCl)CCCl)cc1
> 100 µM

====

Below: a set of entries, each annotated with reported Selectivity Index.
- Assay: Selectivity index, ratio of IC50 for human HL-60 cells to IC50 for human CCRF-CEM cells

Example cases with answers are listed next.
Any idea what its Selectivity Index is? The molecule is C[C@@H]1CC[C@@H]2[C@]34OO[C@](C)(CC[C@@H]13)O[C@H]4O[C@]2(C)COC(=O)c1ccccc1N(CCCl)CCCl
9.73

Also C[C@@H]1CC[C@H]2[C@@H](C)C(OC(=O)c3ccc(N(CCCl)CCCl)cc3)O[C@@H]3O[C@@]4(C)CC[C@@H]1[C@]32OO4 (some centres undefined) ?
17.2

Also O=C(O)CCCc1ccc(N(CCCl)CCCl)cc1 ?
24.1

Now, please, on to the next molecule.
Any idea what its Selectivity Index is? The molecule is Cc1cc(C(=O)OC[C@@]2(C)O[C@@H]3O[C@@]4(C)CC[C@H]5[C@H](C)CC[C@@H]2[C@@]35OO4)ccc1N(CCCl)CCCl
0.63

====

Below: a set of entries, each annotated with reported pIC50.
- Test system: HCT-116
- Assay: Antiproliferative activity against human HCT-116 cells assessed as cell growth inhibition incubated for 72 hrs by MTT assay
- Assay type: functional, cell-based
- Conditions: HCT-116, 72 h
Please treat pIC50 as minus the base-10 logarithm of the molar concentration.

Example cases with answers are listed next.
Could you share what pIC50 was measured for C[C@@H]1CC[C@@H]2[C@]34OO[C@](C)(CC[C@@H]13)O[C@H]4O[C@]2(C)COC(=O)c1ccccc1N(CCCl)CCCl , tested on HCT-116?
4.93

Also Cc1cc(C(=O)OC2O[C@@H]3O[C@@]4(C)CC[C@H]5[C@H](C)CC[C@@H]([C@H]2C)[C@@]35OO4)ccc1N(CCCl)CCCl (stereo partly drawn) ?
5.17

Also COc1cccc2c1C(=O)c1c(O)c3c(c(O)c1C2=O)C[C@@](O)(C(=O)CO)C[C@@H]3O[C@H]1C[C@H](N)[C@H](O)[C@H](C)O1 ?
5.73

Also C[C@@H]1CC[C@@H]2[C@]34OO[C@](C)(CC[C@@H]13)O[C@H]4O[C@]2(C)COC(=O)c1cccc(N(CCCl)CCCl)c1 ?
5.07

Also C[C@@H]1CC[C@H]2[C@@H](C)C(OC(=O)c3ccc(N(CCCl)CCCl)cc3)O[C@@H]3O[C@@]4(C)CC[C@@H]1[C@]32OO4 (stereo partly drawn) ?
5.51

More entries:
Could you share what pIC50 was measured for C[C@@H]1CC[C@@H]2[C@]34OO[C@](C)(CC[C@@H]13)O[C@H]4O[C@]2(C)COC(=O)c1ccc(N(CCCl)CCCl)cc1 , tested on HCT-116?
5.10

Also C[C@@H]1CC[C@H]2[C@@H](C)C(OC(=O)c3ccc(N(CCCl)CCCl)c(F)c3)O[C@@H]3O[C@@]4(C)CC[C@@H]1[C@]32OO4 (stereo partly drawn) ?
5.38

Also C[C@@H]1CC[C@@H]2[C@]34OO[C@](C)(CC[C@@H]13)O[C@H]4O[C@]2(C)COC(=O)Cc1ccc(N(CCCl)CCCl)cc1 ?
4.40

Also C[C@@H]1CC[C@H]2[C@@H](C)C(OC(=O)Cc3ccc(N(CCCl)CCCl)cc3)O[C@@H]3O[C@@]4(C)CC[C@@H]1[C@]32OO4 (stereo partly drawn) ?
5.23

Also Cc1cc(C(=O)OC[C@@]2(C)O[C@@H]3O[C@@]4(C)CC[C@H]5[C@H](C)CC[C@@H]2[C@@]35OO4)ccc1N(CCCl)CCCl ?
5.37

Also C[C@@H]1CC[C@H]2[C@@H](C)C(OC(=O)CCCc3ccc(N(CCCl)CCCl)cc3)O[C@@H]3O[C@@]4(C)CC[C@@H]1[C@]32OO4 (stereo partly drawn) ?
4.91

Also C[C@@H]1CC[C@@H]2[C@]34OO[C@](C)(CC[C@@H]13)O[C@H]4O[C@]2(C)COC(=O)CCc1ccc(N(CCCl)CCCl)cc1 ?
4.68

Also C[C@@H]1CC[C@H]2[C@@H](C)C(OC(=O)CCc3ccc(N(CCCl)CCCl)cc3)O[C@@H]3O[C@@]4(C)CC[C@@H]1[C@]32OO4 (stereo partly drawn) ?
5.09

Also C[C@@H]1CC[C@H]2[C@@H](C)C(OC(=O)c3ccccc3N(CCCl)CCCl)O[C@@H]3O[C@@]4(C)CC[C@@H]1[C@]32OO4 (stereo partly drawn) ?
4.59
